Cited source for all entries: the RNAGym collection of RNA variant scans (doi:10.1093/molbev/msab373)

B1: Azoarcus group I ribozyme (parent)
chain: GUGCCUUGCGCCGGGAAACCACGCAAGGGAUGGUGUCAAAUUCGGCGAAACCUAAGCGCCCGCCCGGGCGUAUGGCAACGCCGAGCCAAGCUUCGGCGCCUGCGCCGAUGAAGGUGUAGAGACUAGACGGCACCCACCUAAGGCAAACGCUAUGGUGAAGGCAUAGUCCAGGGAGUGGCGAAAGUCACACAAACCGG

Variants of: B1
test.summary: reverse-splicing fitness (ratio to wild type); higher = more active; in vitro selection; Mg2+ level not given
Use true when the recorded reverse-splicing fitness is no lower than 0.01; use false when it is lower.

mutation.annotation	assigned.category
C82U A111C A120G A145U C150G C169G	false
C82G A111U A120C C150G C169A U176C	true
C82G A111G A120G A145C C150A C169G U176C	true

Entry C82A A111C A120U A145G C150U C169G : is its reverse-splicing fitness no less than 0.01?
false

Is reverse-splicing fitness for A111G A120U A145C C169U U176C at or above 0.01?
true

Form field: reverse-splicing fitness at least 0.01? Entry: C82A A111C C169A
false

API: above_or_equal(metric=reverse-splicing fitness, cutoff=0.01) for item C82A A111C A120C A145G C150A C169U U176A
true

Could you verify whether the entry A120U A145U C150A U176G shows reverse-splicing fitness of no less than 0.01?
true

Does reverse-splicing fitness meet or surpass 0.01 for C82A A111G A120U A145C C150G C169A ?
false
